Record type: pKi measurement. Applies to: UniProtKB P43140
By convention, pKi is the negative base-10 log of a molar concentration.

Can you share its pKi? I mean this compound: CC(=O)OC1C=CC(OC(C)=O)C2C(=O)N(CCCN3CCN(c4ccccc4OC(C)C)CC3)C(=O)C12.Cl (stereo not shown) [Compound No. 73, hydrochloride]
8.07

Subsequent entry: CC(C)Oc1c(O)cccc1N1CCN(CCCN2C(=O)CCCC2=O)CC1.Cl [Compound No. 38, hydrochloride]
6.85

Thanks! And CCOc1ccccc1N1CCN(CCCN2C(=O)C3CCC(O)CC3C2=O)CC1.Cl (stereo not shown) [Compound No. 18, hydrochloride] ?
8.82

====

Entries and their measured α1B/α1A follow.
target: α1A adrenoceptor (Rattus norvegicus, UniProt P43140); construct: from tissue; host or cells: rat submaxillary gland membranes; experiment: Radioligand binding, [3H] prazosin displacement, rat submaxillary membranes; conditions: ratio of binding affinities, rat liver / rat submaxillary
Sequence (P43140 whole entry): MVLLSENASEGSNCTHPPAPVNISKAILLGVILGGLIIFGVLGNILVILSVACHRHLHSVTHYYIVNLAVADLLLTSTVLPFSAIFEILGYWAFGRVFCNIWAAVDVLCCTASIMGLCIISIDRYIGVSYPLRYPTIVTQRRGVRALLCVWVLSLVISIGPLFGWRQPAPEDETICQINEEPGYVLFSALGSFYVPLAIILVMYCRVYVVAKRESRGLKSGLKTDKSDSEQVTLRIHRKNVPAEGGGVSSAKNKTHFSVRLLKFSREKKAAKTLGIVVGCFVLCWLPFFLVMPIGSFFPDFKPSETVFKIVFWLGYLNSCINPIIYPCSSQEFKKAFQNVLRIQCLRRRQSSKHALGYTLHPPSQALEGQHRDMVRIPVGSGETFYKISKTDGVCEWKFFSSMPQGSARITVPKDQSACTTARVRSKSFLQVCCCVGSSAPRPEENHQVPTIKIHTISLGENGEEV
Where a name gives a salt, the structure may show the parent alone.
Just the number.

These recorded examples may help you get a feel for the data.
{"Compound": "CC(C)Oc1cc([N+](=O)[O-])ccc1N1CCN(CCCN2C(=O)C3CC=CCC3C2=O)CC1 (stereo not shown) [Compound No. 25, hydrochloride]", "α1B/α1A": 201}
{"Compound": "CC(C)Oc1ccccc1N1CCN(CCCN2C(=O)C3C(O)C=CC(O)C3C2=O)CC1 (stereo not shown)", "α1B/α1A": 263}

Consider the record given below.
So what does the record say about α1B/α1A for CC(C)Oc1ccccc1N1CCN(CCCN2C(=O)C3CC(O)C(O)CC3C2=O)CC1 (stereo not shown) [Compound No. 23] ?
130

====

molecular target: α1B adrenoceptor (spleen) (Rattus norvegicus, UniProt P15823); construct: Isolated tissues were mounted in organ bath containing Krebs Henseleit buffer; from tissue; host or cells: isolated rat spleen; assay: In vitro functional assay, isolated spleen, phenylepinephrine contraction; type: cell-based; conditions: read-out: α Adrenoceptor Subtype (pKB) α1B (converted)
The following compounds are shown together with reported Kb values.
The response must be a number in nM with no trailing unit.

Reference set, count: 6
{"Compound": "CCOc1ccccc1N1CC[N+]([O-])(CCCN2C(=O)C3CC=CCC3C2=O)CC1 (stereo not shown)", "System tested": "α1B adrenoceptor (spleen) (Rattus norvegicus, UniProt P15823)", "Kb, nM": 7.08}
{"Compound": "CCOc1ccccc1[N+]1([O-])CC[N+]([O-])(CCCN2C(=O)C3CC=CCC3C2=O)CC1 (stereo not shown)", "System tested": "α1B adrenoceptor (spleen) (Rattus norvegicus, UniProt P15823)", "Kb, nM": 18.6}
{"Compound": "CC(C)Oc1ccccc1N1CCN(CCCN2C(=O)C3CC4OC4CC3C2=O)CC1 (stereo not shown)", "System tested": "α1B adrenoceptor (spleen) (Rattus norvegicus, UniProt P15823)", "Kb, nM": 69.2}
{"Compound": "Cl.O=C1C2CC=CCC2C(=O)N1CCCN1CCN(c2ccccc2OCC(F)(F)F)CC1 (stereo not shown) [compound 02, hydrochloride]", "System tested": "α1B adrenoceptor (spleen) (Rattus norvegicus, UniProt P15823)", "Kb, nM": 1.29}
{"Compound": "CC(C)Oc1ccccc1N1CCN(CCCN2C(=O)C3CC=CC(O)C3C2=O)CC1.Cl (stereo not shown) [Compound No. 41, hydrochloride]", "System tested": "α1B adrenoceptor (spleen) (Rattus norvegicus, UniProt P15823)", "Kb, nM": 67.6}
{"Compound": "CC(C)Oc1ccc(O)cc1N1CCN(CCCN2C(=O)C3CC=CCC3C2=O)CC1.Cl (stereo not shown) [Compound No. 21, hydrochloride]", "System tested": "α1B adrenoceptor (spleen) (Rattus norvegicus, UniProt P15823)", "Kb, nM": 70.8}

Moving on to the next compound.
Param readout = Kb; param system = α1B adrenoceptor (spleen) (Rattus norvegicus, UniProt P15823); param query = Cl.O=C1CCCC(=O)N1CCCN1CCN(c2ccccc2O)CC1 [compound 01, hydrochloride] ; response: value
38

====

target: α1A adrenoceptor (Rattus norvegicus); construct: from tissue; host or cells: rat submaxillary gland membranes; assay: Radioligand binding, [3H] prazosin displacement, rat submaxillary membranes; settings: ratio of binding affinities, rat liver / rat submaxillary
Threshold-based label: α1B/α1A under 40 gives y, α1B/α1A not under 40 gives n.

Before answering, review these 3 worked examples.
{"Compound": "CC(C)Oc1cc(N)ccc1N1CCN(CCCN2C(=O)C3CC=CCC3C2=O)CC1.Cl (centres unmarked) [Compound No. 26]", "Assigned label": "n"}
{"Compound": "CC(C)Oc1ccccc1NCCN(C=O)CCCN1C(=O)C2CC=CCC2C1=O (centres unmarked) [Compound No. 53]", "Assigned label": "n"}
{"Compound": "Cl.O=C1C2CC=CCC2C(=O)N1CCCN1CCN(c2ccccc2OCC(F)(F)F)CC1 (centres unmarked) [compound 02]", "Assigned label": "n"}

State whether 40 exceeds α1B/α1A recorded for Cl.O=C1CCCC(=O)N1CCCN1CCN(c2ccccc2O)CC1 [compound 01] .
y

Same read-out for CC(C)Oc1ccccc1N1CCN(CCCN2C(=O)C3CC(O)C(O)CC3C2=O)CC1 (centres unmarked) [Compound No. 13] ?
n

====

Counter-ions that a name gives are not always drawn.
pKi data for α1B adrenoceptor (Rattus norvegicus, UniProt P15823) follow.
The read-out pKi is expressed as -log10 of concentration in moles per litre.

{"Compound": "CC(C)Oc1ccccc1NCCNCCCN1C(=O)[C@H]2CC=CC[C@H]2C1=O [Compound No. 42, hydrochloride]", "Readout label": "pKi", "Numeric readout": 6.11}
{"Compound": "Cl.O=C1C2CC=CCC2C(=O)N1CCCN1CCN(c2ccccc2OC2CCCC2)CC1 (stereo not shown) [Compound No. 43, hydrochloride]", "Readout label": "pKi", "Numeric readout": 7.30}
{"Compound": "Cl.O=C1CCCC(=O)N1CC(O)CN1CCN(c2ccccc2OCC(F)(F)F)CC1 (stereo not shown) [Compound No. 39, hydrochloride]", "Readout label": "pKi", "Numeric readout": 5.86}

Now turn to the next compound.
Requested field: pKi. Item: CC(C)Oc1c(O)cccc1N1CCN(CCCN2C(=O)CCCC2=O)CC1.Cl [Compound No. 38, hydrochloride]
6.12

====

Listed compounds paired with reported Kb
molecular target: α1D adrenoceptor (aorta) (Rattus norvegicus, UniProt P23944); construct: Isolated tissues were mounted in organ bath containing Krebs Henseleit buffer; from tissue; host or cells: isolated rat aorta; experiment: In vitro functional assay, isolated aorta, norepinephrine contraction; format: cell-based; conditions: read-out: α Adrenoceptor Subtype (pKB) α1D (converted)
Sequence (P23944 whole entry): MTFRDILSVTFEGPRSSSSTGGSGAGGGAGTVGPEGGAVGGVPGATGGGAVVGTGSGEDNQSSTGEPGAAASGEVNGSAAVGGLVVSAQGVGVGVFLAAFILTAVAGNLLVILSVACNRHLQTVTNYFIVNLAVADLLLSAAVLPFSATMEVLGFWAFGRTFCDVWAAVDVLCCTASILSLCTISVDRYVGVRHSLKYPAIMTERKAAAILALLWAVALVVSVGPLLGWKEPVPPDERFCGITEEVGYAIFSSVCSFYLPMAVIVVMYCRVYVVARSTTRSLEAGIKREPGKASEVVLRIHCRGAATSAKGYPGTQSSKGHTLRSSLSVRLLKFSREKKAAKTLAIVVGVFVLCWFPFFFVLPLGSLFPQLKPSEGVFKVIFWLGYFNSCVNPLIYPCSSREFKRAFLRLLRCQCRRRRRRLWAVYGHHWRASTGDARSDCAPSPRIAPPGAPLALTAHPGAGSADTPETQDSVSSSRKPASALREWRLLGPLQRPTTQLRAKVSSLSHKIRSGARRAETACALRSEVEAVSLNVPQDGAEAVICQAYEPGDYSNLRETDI
Counter-ions that a name gives are not always drawn.
Write your answer as a measured quantity: the number, then the unit.

Solved entries (count: 3):
{"Compound": "CCOc1ccccc1N1CCN(CC(O)CN2C(=O)C3CC=CCC3C2=O)CC1 (stereo not shown) [Compound No. 11, hydrochloride]", "Result": "3.72 nM"}
{"Compound": "O=C1C2CC3OC3CC2C(=O)N1CCCN1CCN(c2ccccc2OCC(F)(F)F)CC1 (stereo not shown) [Compound No. 32]", "Result": "15.8 nM"}
{"Compound": "CC(C)Oc1ccccc1N1CCN(CCCN2C(=O)C3CC=CC(O)C3C2=O)CC1.Cl (stereo not shown) [Compound No. 41, hydrochloride]", "Result": "2.45 nM"}

Could you now consider this next compound?
I am curious: what Kb value has been reported for CC(=O)OC1C=CCC2C(=O)N(CCCN3CCN(c4ccccc4OC(C)C)CC3)C(=O)C12 (stereo not shown) [Compound No. 40, hydrochloride] ?
1.51 nM

====

Molecular target: α1B adrenoceptor (Rattus norvegicus, UniProt P15823)
Sequence (P15823 1-515): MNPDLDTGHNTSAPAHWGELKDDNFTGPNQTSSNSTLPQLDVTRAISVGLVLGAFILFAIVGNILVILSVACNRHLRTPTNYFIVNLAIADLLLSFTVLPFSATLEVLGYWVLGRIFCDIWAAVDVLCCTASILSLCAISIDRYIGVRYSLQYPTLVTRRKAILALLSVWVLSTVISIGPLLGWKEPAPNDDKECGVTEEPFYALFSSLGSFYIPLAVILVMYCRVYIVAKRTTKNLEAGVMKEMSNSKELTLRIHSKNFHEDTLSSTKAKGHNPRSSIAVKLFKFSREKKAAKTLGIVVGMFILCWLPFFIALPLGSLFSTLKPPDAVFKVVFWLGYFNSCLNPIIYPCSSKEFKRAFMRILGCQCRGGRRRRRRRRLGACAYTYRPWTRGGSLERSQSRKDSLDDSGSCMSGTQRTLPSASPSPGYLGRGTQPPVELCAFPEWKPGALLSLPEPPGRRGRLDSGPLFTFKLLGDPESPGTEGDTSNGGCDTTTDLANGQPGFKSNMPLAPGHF
Structures can show the parent of a compound that is named as a salt.
Readout label: pKi
To interpret pKi, take it as minus log10 of a concentration measured in moles per litre.

{"Molecule": "CCOc1ccccc1N1CCN(CCCN2C(=O)C3CCC(O)CC3C2=O)CC1.Cl (stereo not shown) [Compound No. 18, hydrochloride]", "Numeric readout": 7.01}

What value of measured pKi is listed for CCOc1ccccc1N1CCN(CC(O)CN2C(=O)C3CC=CCC3C2=O)CC1 (stereo not shown) [Compound No. 11, hydrochloride] ?
6.72

Also check Cl.O=C1CCCC(=O)N1CCCN1CCN(c2ccccc2O)CC1 [compound 01, hydrochloride]
7.10

Would you mind doing CC(=O)OC1C=CC(OC(C)=O)C2C(=O)N(CCCN3CCN(c4ccccc4OC(C)C)CC3)C(=O)C12.Cl (stereo not shown) [Compound No. 73, hydrochloride] as well?
6.72
